Values were extracted from patent US20260242478A1.

- TARGET DESC: T1, PSMA Fab (biotinylated (site not stated))
- T1 construct: Biotinylated PSMA Fab captured on neutravidin coated plates in the phage ELISA; also called Anti-PSMA Fab; 006 PSMA Fab
- MEASUREMENT DESCRIPTION: phage ELISA; biotinylated PSMA Fab on neutravidin plate pre-incubated with PSMA antigen as competitor, anti-M13 HRP detection;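 note: crude clonal phage supernatants tested, compared against control wells pre-incubated with blocking buffer only, without PSMA antigen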
This section presents binders with their documented Phage binding ELISA signal, Anti-PSMA Fab in presence of PSMA values.
Answer with a number only.

Sample answers from the record:
[
  {
    "BINDER": "WQAWCEPPWMCLGF [Phage-3851]",
    "MEAS VALUE": 0.0962
  },
  {
    "BINDER": "SDMVCKPPWMCYGF [Phage-3844]",
    "MEAS VALUE": 0.0897
  },
  {
    "BINDER": "NYVKCRPAWMCDGF [Phage-3855]",
    "MEAS VALUE": 0.0759
  },
  {
    "BINDER": "EPKECVPPWMCIGM [Phage-3850]",
    "MEAS VALUE": 0.079
  },
  {
    "BINDER": "LYEMCKPLWMCAGF [Phage-3842]",
    "MEAS VALUE": 0.0737
  },
  {
    "BINDER": "DQRMCEPSWMCLGL [Phage-3852]",
    "MEAS VALUE": 0.0704
  },
  {
    "BINDER": "VSKMCSPVWMCEGF [Phage-3854]",
    "MEAS VALUE": 0.0928
  },
  {
    "BINDER": "VVHLCTPNWMCNGF [Phage-3853]",
    "MEAS VALUE": 0.0576
  },
  {
    "BINDER": "SGLSCVPFWMCTGF [Phage-3845]",
    "MEAS VALUE": 0.0662
  },
  {
    "BINDER": "VPRLCMPPWMCVGF [Phage-3848]",
    "MEAS VALUE": 0.0968
  }
]

Using the record for ELRLCVPHWMCDGF [Phage-3847] , report its Phage binding ELISA signal, Anti-PSMA Fab in presence of PSMA. 0.0777

Using the record for WDIRCSPEWMCIGL [Phage-3849] , report its Phage binding ELISA signal, Anti-PSMA Fab in presence of PSMA. 0.0603

Using the record for YNQLCIPNWMCTGF [Phage-3846] , report its Phage binding ELISA signal, Anti-PSMA Fab in presence of PSMA. 0.0729

Using the record for PFLACIPQWMCEVV [Phage-3843] , report its Phage binding ELISA signal, Anti-PSMA Fab in presence of PSMA. 0.247
